Reported log10 IC50 values for a set of molecules
# SYSTEM_TESTED: 6-phosphofructo-2-kinase/fructose-2,6-bisphosphatase 1 (Homo sapiens)
# Sequence (P16118 whole entry): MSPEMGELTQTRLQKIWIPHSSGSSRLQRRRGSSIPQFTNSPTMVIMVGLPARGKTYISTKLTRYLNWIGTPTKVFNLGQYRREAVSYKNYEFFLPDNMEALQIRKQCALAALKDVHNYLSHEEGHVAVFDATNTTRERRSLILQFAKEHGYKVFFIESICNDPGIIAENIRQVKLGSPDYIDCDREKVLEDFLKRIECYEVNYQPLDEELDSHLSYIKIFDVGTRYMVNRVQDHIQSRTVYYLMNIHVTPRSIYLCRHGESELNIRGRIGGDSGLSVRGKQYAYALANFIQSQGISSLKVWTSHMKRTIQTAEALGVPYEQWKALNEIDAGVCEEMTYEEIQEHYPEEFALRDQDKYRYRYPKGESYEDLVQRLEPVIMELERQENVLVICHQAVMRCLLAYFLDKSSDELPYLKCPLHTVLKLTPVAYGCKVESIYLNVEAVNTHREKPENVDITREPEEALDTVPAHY
# PROTOCOL: Inhibition of recombinant human PFKFB1 using fructose 6 phosphate as substrate assessed as ADP generation after 1 hr by ADP Glo assay
Use the decimal logarithm of IC50 (µM).

Given N#Cc1c(N)n(Cc2ccccc2)c2ccc(Oc3ccc(NC(=O)CN)cc3)cc12 , respond with its log10 IC50.
0.42

Supply recorded log10 IC50 for N#Cc1c[nH]c2ccc(Oc3ccc(NC(=O)CN)cc3)cc12 here.
1.58

Supply reported log10 IC50 belonging to this molecule: Cc1noc(C)c1Cn1cc(C#N)c2cc(Oc3ccc(NC(=O)[C@@H]4CCCN4)cc3)ccc21
0.05

Name the recorded log10 IC50 of the item N#Cc1cn(CC2CCOCC2)c2ccc(Oc3ccc(NC(=O)[C@@H]4CCCN4)cc3)cc12 in your answer.
0.54

Read off the recorded log10 IC50 for CCn1cc(C#N)c2cc(Oc3ccc(NC(=O)CN(C)C)cc3)ccc21
1.80

---

# PROTOCOL: Lipophilicity, log D of the compound at pH 7.4
# COND: buffer
OBSERVABLE: logD
A bare number is all that is needed in reply.

CCn1cc(C#N)c2cc(Oc3ccc(NC(=O)[C@@H]4CCCN4)cc3)ccc21 ... 2.9
Cc1noc(C)c1Cn1cc(C#N)c2cc(Oc3ccc(NC(=O)[C@@H]4CCCN4)cc3)ccc21 ... 2.8
CC(C)Cn1cc(C#N)c2cc(Nc3ccc(NC(=O)[C@@H]4CCCN4)cc3)ccc21 ... 2.7
CN(C)CCn1cc(C#N)c2cc(Oc3ccc(NC(=O)[C@@H]4CCCN4)cc3)ccc21 ... 2.1

For CN(C)C(=O)Cn1c(N)c(C#N)c2cc(Oc3ccc(NC(=O)CN)cc3)ccc21 , write its logD.
0.5

---

# PROTOCOL: Half life in rat hepatocytes
# Format: ADME, cell-based, Hepatocyte
OBSERVABLE: half-life (min)
Report as a plain number; the unit min is understood.

Look up half-life of CC(C)Cn1cc(C#N)c2cc(Oc3ccc(NC(=O)[C@@H]4CCCN4)cc3)ccc21 and report it.
21

---

# PROTOCOL: Efflux ratio of apparent intrinsic permeability in human Caco2 cells
# Format: ADME, cell-based
# COND: Caco-2
OBSERVABLE: efflux ratio
Just the number.

Report measured efflux ratio; entry is CC(C)Cn1cc(C#N)c2cc(Oc3ccc(NC(=O)[C@@H]4CCCN4)cc3)ccc21
4.6

---

# PROTOCOL: Half life in CD1 mouse at 2.5 uM/kg, iv
# Format: ADME, organism-based
# COND: in vivo
OBSERVABLE: half-life at […] (h)
Report the value in h with no unit label.

Quickly give me recorded half-life at […] for CC(C)Cn1cc(C#N)c2cc(Oc3ccc(NC(=O)[C@@H]4CCCN4)cc3)ccc21
1.4

---

# PROTOCOL: Fraction unbound in human plasma
# Type: ADME, cell-free
OBSERVABLE: fraction unbound
Reply: number alone, nothing else.

Identify measured fraction unbound associated with CC(C)Cn1cc(C#N)c2cc(Oc3ccc(NC(=O)[C@@H]4CCCN4)cc3)ccc21
0.0033

---

# PROTOCOL: Fraction unbound in mouse plasma
# Format: ADME, cell-free
OBSERVABLE: fraction unbound
Kindly provide the number alone.

Tell me fraction unbound reported for CC(C)Cn1cc(C#N)c2cc(Oc3ccc(NC(=O)[C@@H]4CCCN4)cc3)ccc21
0.0164

---

# SYSTEM_TESTED: 6-phosphofructo-2-kinase/fructose-2,6-bisphosphatase 3 (Homo sapiens)
# Sequence (Q16875 whole entry): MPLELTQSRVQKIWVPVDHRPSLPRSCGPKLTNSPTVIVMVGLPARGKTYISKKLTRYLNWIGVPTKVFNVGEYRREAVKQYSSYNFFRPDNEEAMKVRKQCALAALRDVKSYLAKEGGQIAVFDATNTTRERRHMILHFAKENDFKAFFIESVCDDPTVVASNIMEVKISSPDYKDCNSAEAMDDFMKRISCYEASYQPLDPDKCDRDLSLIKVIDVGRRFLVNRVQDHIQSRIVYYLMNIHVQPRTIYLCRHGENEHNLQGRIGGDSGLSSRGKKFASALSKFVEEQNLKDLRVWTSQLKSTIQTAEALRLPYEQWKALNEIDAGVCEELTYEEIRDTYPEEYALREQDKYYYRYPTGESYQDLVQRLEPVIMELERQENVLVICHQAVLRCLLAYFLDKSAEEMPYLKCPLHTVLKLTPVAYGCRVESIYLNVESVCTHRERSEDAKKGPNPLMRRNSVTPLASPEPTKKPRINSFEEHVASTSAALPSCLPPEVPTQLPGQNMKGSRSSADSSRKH
# PROTOCOL: Inhibition of recombinant human PFKFB3 using fructose 6 phosphate as substrate assessed as ADP generation after 1 hr by ADP Glo assay
OBSERVABLE: IC50 (nM)
# output: bare number, implied unit nM

N#Cc1c(N)n(Cc2ccccc2)c2ccc(Oc3ccc(NC(=O)CN)cc3)cc12 ... 104

Quickly give me recorded IC50 for N#Cc1cn(Cc2ccccc2)c2ccc(Oc3ccc(NC(=O)[C@@H]4CCCN4)cc3)cc12
20

Complete the entry with IC50 for CCn1cc(C#N)c2cc(Oc3ccc(NC(=O)CN(C)C)cc3)ccc21
9830

Give reported IC50 value for CC(C)Cn1cc(C#N)c2cc(S(=O)(=O)c3ccc(NC(=O)[C@@H]4CCCN4)cc3)ccc21
37700

Provide only the value of recorded IC50 for CNC(=O)Cn1cc(C#N)c2cc(Oc3ccc(NC(=O)[C@@H]4CCCN4)cc3)ccc21
111

Using known records, supply IC50 for CN(C)C(=O)Cn1c(N)c(C#N)c2cc(Oc3ccc(NC(=O)CN)cc3)ccc21
343

For the molecule N#Cc1c(N)[nH]c2ccc(Oc3ccc(NC(=O)CN)cc3)cc12 , give its measured IC50 value.
2320

Using the record for N#Cc1c[nH]c2ccc(Oc3ccc(NC(=O)CN)cc3)cc12 , state its measured IC50.
2010

---

logD: recorded values
# PROTOCOL: Lipophilicity, log D of the compound at pH 7.4
# COND: buffer

Worked cases, answers included:
CC(C)Cn1cc(C#N)c2cc(Cc3ccc(NC(=O)[C@@H]4CCCN4)cc3)ccc21 ... 3.9
CCn1cc(C#N)c2cc(Oc3ccc(NC(=O)[C@@H]4CCCCN4)cc3)ccc21 ... 2.7
Cn1cc(-c2c[nH]c3ccc(Oc4ccc(NC(=O)[C@@H]5CCCN5)cc4)cc23)cn1 ... 2.3
CCn1cc(C#N)c2cc(Oc3ccc(NC(=O)[C@H]4CCCN4)cc3)ccc21 ... 2.8
CC(C)Cn1cc(C#N)c2cc(S(=O)(=O)c3ccc(NC(=O)[C@@H]4CCCN4)cc3)ccc21 ... 2.9

For the compound Cn1c(N)c(C#N)c2cc(Oc3ccc(NC(=O)CN)cc3)ccc21 , give its reported logD.
1.9

Give a short answer stating reported logD for CC(C)Cn1c(N)c(C#N)c2cc(Oc3ccc(NC(=O)CN)cc3)ccc21 .
3.2

---

# PROTOCOL: Clearance in CD1 mouse at 2.5 uM/kg, po and iv
# Assay type: ADME, organism-based
# COND: in vivo
OBSERVABLE: clearance at […] (mL/min/kg)
Express your answer in mL/min/kg, writing the number without its unit.

Output clearance at […] of CC(C)Cn1cc(C#N)c2cc(Oc3ccc(NC(=O)[C@@H]4CCCN4)cc3)ccc21
38

---

Listing of entries alongside the reported IC50.
# SYSTEM_TESTED: 6-phosphofructo-2-kinase/fructose-2,6-bisphosphatase 3 (Homo sapiens)
# PROTOCOL: Inhibition of PFKFB3 in human A549 cells assessed as decrease in lactate secretion after 4 hrs
# Format: cell-based
# value in µM; strip the unit string

Field: example entries. Status: answers known.
CC(C)Cn1cc(C#N)c2cc(S(=O)(=O)c3ccc(NC(=O)[C@@H]4CCCN4)cc3)ccc21 ... 24.7
CCn1cc(C#N)c2cc(Oc3ccc(NC(=O)[C@@H]4CCCN4)cc3)ccc21 ... 12
N#Cc1c(N)n(Cc2ccccc2)c2ccc(Oc3ccc(NC(=O)CN)cc3)cc12 ... 12.6
CC(C)Cn1cc(C#N)c2cc(N(C)c3ccc(NC(=O)[C@@H]4CCCN4)cc3)ccc21 ... 13.7
N#Cc1cn(-c2ccccc2)c2ccc(Oc3ccc(NC(=O)[C@@H]4CCCN4)cc3)cc12 ... 8.71
CC(C)Cn1cc(C#N)c2cc(Oc3ccc(NC(=O)[C@@H]4CCCN4)cc3)ccc21 ... 5.77
CC(C)Cn1cc(C#N)c2cc(Sc3ccc(NC(=O)[C@@H]4CCCN4)cc3)ccc21 ... 14

Next item in the queue.
Enter IC50 (test system 6-phosphofructo-2-kinase/fructose-2,6-bisphosphatase 3 (Homo sapiens)) for CC(C)Cn1nc(C#N)c2cc(Oc3ccc(NC(=O)[C@@H]4CCCN4)cc3)ccc21
15.4

---

# SYSTEM_TESTED: 6-phosphofructo-2-kinase/fructose-2,6-bisphosphatase 3 (Homo sapiens)
# PROTOCOL: Inhibition of recombinant human PFKFB3 using fructose 6 phosphate as substrate assessed as ADP generation after 1 hr by ADP Glo assay
Please use TRUE for IC50 under 500 nM and FALSE for everything else, ties included.

CCn1cc(C#N)c2cc(Oc3ccc(NC(=O)[C@@H]4CCC(=O)N4)cc3)ccc21 ... FALSE
CCn1cc(C#N)c2cc(Oc3ccc(NC(=O)[C@@H]4CCCCN4)cc3)ccc21 ... FALSE
N#Cc1cn(-c2ccccc2)c2ccc(Oc3ccc(NC(=O)[C@@H]4CCCN4)cc3)cc12 ... TRUE
CC(C)Cn1cc(C#N)c2cc(N(C)c3ccc(NC(=O)[C@@H]4CCCN4)cc3)ccc21 ... TRUE
Cc1noc(C)c1Cn1cc(C#N)c2cc(Oc3ccc(NC(=O)[C@@H]4CCCN4)cc3)ccc21 ... TRUE

# check: IC50 < 500 nM for CCn1cc(C#N)c2cc(Oc3ccc(NC(=O)[C@@H]4CCCN4)cc3)ccc21
TRUE

A record lists CCn1cc(C#N)c2cc(Oc3ccc(N(C)C(=O)[C@@H]4CCCN4)cc3)ccc21 . Is its IC50 below 500 nM?
FALSE

For CCn1cc(C#N)c2cc(Oc3ccc(NC(=O)[C@H]4CCCN4)cc3)ccc21 , is the recorded IC50 below the cut-off of 500 nM?
FALSE

Please indicate whether the reported IC50 of CC(C)Cn1nc(C#N)c2cc(Oc3ccc(NC(=O)[C@@H]4CCCN4)cc3)ccc21 is strictly below 500 nM.
TRUE
